These entries and their values trace back to patent US20160053277A1.

Test: 14C assay with IPTG-induced recombinant E. coli cells: 14CO2 captured from [14C]-carboxyl-labeled dicamba
Conditions: induced recombinant E. coli cells, [14C]-carboxyl-labeled dicamba, 14CO2 capture

{"columns": ["molecule", "Dicamba Decarboxylase Activity"],
 "data": [
  ["88 (protein, listed as Starkeya novella) MARKIALEEHFTTPELAGKYVARPTQSDALFADIERRLADFDELRLEMMDRAEIDLMVLSVTTPGVQGVRDTGEAIRLARGANDFLAREVQKRPSRYAGFAHLAMQDAEAAATELERAVRELGFRGALINGQTNGHYLDEDQYAPFWERVQELDVPVYLHPGNMADSPAMFAHRPELGGPIWAWTAETAAHALRLVFGGTFTRFPGAKVILGHMGETLPFLLWRLDSRREFDLGEKLAPDALPSAIIKRNIAVTTSGVCDPAPLVAALQALSDDNVMFSVDYPYEDPQLASKFIETAPIGEETRAKVCHGNAERLLGL", "High"],
  ["1 (protein, listed as Rhizobium sp.) MAQGKVALEEHFAIPETLQDSAGFVPGDYWKELQHRLLDIQDTRLKLMDAHGIETMILSLNAPAVQAIPDRRKAIEIARRANDVLAEECAKRPDRFLAFAALPLQDPDAATEELQRCVNDLGFVGALVNGFSQEGDGQTPLYYDLPQYRPFWGEVEKLDVPFYLHPRNPLPQDSRIYDGHPWLLGPTWAFAQETAVHALRLMASGLFDEHPRLNIILGHMGEGLPYMMWRIDHRNAWVKLPPRYPAKRRFMDYFNENFHITTSGNFRTQTLIDAILEIGADRILFSTDWPFENIDHASDWFNATSIAEADRVKIGRTNARRLFKLDGA", "High"],
  ["9 (protein, listed as Octadecabacter antarcticus) MATPKITFEEHFMAPGFEKHSEAFLKLIPRDQAEILTRRLGDFDGERIETMDRGGITRSIISLTGPGTQGEAVEKAVSAAQGANDFLAEKISKKPDRLGGLATLPMHDPDAAARELNRAVNDLGLQGCLVNTHTHGAYYEGTDYDPFWAEVEKLGVPFYLHPSNAYVTPHVLGGMPVLQGATWGWGVETGSHALRILFGGVFDRFPDVKLVLGHMGEALPFLRWRYDSRFGAYPMGVSLDRAPSAYFGSNILITTSGVCSHPSLIGAIGEMGADAVMFSVDYPYEDTDLAVEFIETAPLEDATRVKICHDNAARLFGMPTLAAKEGA", "No"],
  ["104 (protein, Plasmodium Vivax) MANILQEPIDFLKKEELKNIDLSQMSKKERYKIWKRIPKCELHCHLDLCFSADFFVSCIRKYNLQPNLSDEEVLDYYLFAKGGKSLGEFVEKAIKVADIFHDYEVIEDLAKHAVFNKYKEGVVLMEFRYSPTFVAFKYNLDIELIHQAIVKGIKEVVELLDHKIHVALMCIGDTGHEAANIKASADFCLKHKADFVGFDHGGHEVDLKEYKEIFDYVRESGVPLSVHAGEDVTLPNLNTLYSAIQVLKVERIGHGIRVAESQELIDMVKEKNILLEVCPISNVLLKNAKSMDTHPIRQLYDAGVKVSVNSDDPGMFLTNINDDYEELYTHLNFTLEDFMKMNEWALEKSFMDSNIKDKIKNLYF", "No"]
]}
